- TARGET SYSTEM: recombinant human GST-Syk (Homo sapiens)
- Construct: purchased Carna Biosciences 08-176
- EXPERIMENTAL PROTOCOL: Homogeneous Time-Resolved Fluorescence (HTRF) assay for the recombinant human Syk enzyme
- Type: biochemical
- STATED CONDITIONS: recombinant human GST-Syk 5 pM, ATP 25 μM, 10-dose titration 10 μM to 0.508 nM; read-out: rhSYK Activity IC50
PROPERTY NAME: IC50 (nM)

Cc1cc(Nc2cc(C(F)(F)F)ccn2)nc(-c2cn(CC3(N)CC3)nn2)c1 [Example 5.112] | 17
Cc1cc(Nc2cc(C(C)F)ccn2)nc(-c2cn(CC(C)(O)C(C)(C)O)nn2)c1 (stereo not shown) [Example 21.17] | 23.1

[P] Cc1cc(Nc2cc(C(F)(F)F)ccn2)nc(-c2cn(C3CCC(C(=O)O)C(C)(C)C3)nn2)c1 (single isomer, unassigned) [Example 3.9]
[Q] COc1nc(Nc2cc(C)cc(-c3cn(CC(C)(O)C(C)(C)O)nn3)c2)ncc1F (stereo not shown) [Example 21.33]
Incoming: Of P versus Q , which is the one with smaller reported IC50? Please reply using the label of the selected record.
Outgoing: P
(P: 3 nM, Q: 66.3 nM)

====

- TARGET SYSTEM: recombinant human GST-Syk (Homo sapiens, UniProt P43405)
- Construct: purchased Carna Biosciences 08-176
- EXPERIMENTAL PROTOCOL: Homogeneous Time-Resolved Fluorescence (HTRF) assay for the recombinant human Syk enzyme
- Format: biochemical
- STATED CONDITIONS: recombinant human GST-Syk 5 pM, ATP 25 μM, 10-dose titration 10 μM to 0.508 nM; read-out: rhSYK Activity IC50
- Protocol: Syk inhibition may be determined using the following assay protocol: Homogeneous Time-Resolved Fluorescence (HTRF) assay for the recombinant human Syk enzyme: A recombinant GST-hSyk fusion protein was used to measure potency of compounds to inhibit human Syk activity. […] Final volume of the reaction was 10 μL. […] The resulting HTRF signal was measured after 30 minutes on an EnVision (Perkin-Elmer) reader using a time-resolved fluorescence protocol.
PROPERTY NAME: IC50 (µM)

Some solved cases for reference:
Cc1cc(Nc2nccc(C(F)(F)F)n2)cc(-c2cn(CCN)nn2)c1 | 0.187
Cc1cc(Nc2nccc(C(F)(F)F)n2)cc(-c2cn(C[C@H](O)CO)nn2)c1 | 0.0246

[P] Cc1cc(Nc2cc(C(F)(F)F)ccn2)nc(-c2cn(CC(O)C(O)c3ccccc3)nn2)c1 (stereo not shown)
[Q] Cc1cc(Nc2nccc(C(F)(F)F)n2)cc(-n2cc(CC(C)(C)C(=O)O)nn2)c1
Incoming: Of P versus Q , which is the one with smaller reported IC50? Please reply using the label of the selected record.
Outgoing: P
(P: 0.0088 µM, Q: 0.088 µM)

====

- TARGET SYSTEM: recombinant human GST-Syk (Homo sapiens, UniProt P43405)
- Construct: purchased Carna Biosciences 08-176
- EXPERIMENTAL PROTOCOL: Homogeneous Time-Resolved Fluorescence (HTRF) assay for the recombinant human Syk enzyme
- Assay type: biochemical
- STATED CONDITIONS: recombinant human GST-Syk 5 pM, ATP 25 μM, 10-dose titration 10 μM to 0.508 nM; read-out: rhSYK Activity IC50
pIC50: −log10 of the molar value.
PROPERTY NAME: pIC50

Cc1cc(Nc2nccc(C(F)F)n2)cc(-c2cn(CC3(C)CNC(=O)O3)nn2)c1 (single isomer, unassigned) [Example 7.31] | 8.10

[A] Cc1cc(Nc2nccc(C(F)(F)F)n2)cc(-c2cn(C3CS(=O)(=O)CC3O)nn2)c1 (stereo not shown)
[B] Cc1cc(Nc2nccc(C)n2)cc(-c2cn(C3CCCCC3(C)O)nn2)c1 (single isomer, unassigned) [Example 7.28]
[C] Cc1cc(Nc2cc(C(F)(F)F)ccn2)nc(-c2cn(CC(C)(O)CO)nn2)c1 (stereo not shown) [Example 10.14]
Incoming: Reorder: pIC50, max to min. Rank the items, then write their labels in that order.
Outgoing: C, A, B
(C: 8.04, A: 7.62, B: 7.11)

====

- TARGET SYSTEM: recombinant human GST-Syk (Homo sapiens, UniProt P43405)
- Construct: purchased Carna Biosciences 08-176
- EXPERIMENTAL PROTOCOL: Homogeneous Time-Resolved Fluorescence (HTRF) assay for the recombinant human Syk enzyme
- Type: biochemical
- STATED CONDITIONS: recombinant human GST-Syk 5 pM, ATP 25 μM, 10-dose titration 10 μM to 0.508 nM; read-out: rhSYK Activity IC50
- Procedure: Syk inhibition may be determined using the following assay protocol: Homogeneous Time-Resolved Fluorescence (HTRF) assay for the recombinant human Syk enzyme: A recombinant GST-hSyk fusion protein was used to measure potency of compounds to inhibit human Syk activity. […] Final volume of the reaction was 10 μL. […] The resulting HTRF signal was measured after 30 minutes on an EnVision (Perkin-Elmer) reader using a time-resolved fluorescence protocol.
pIC50: −log10 of the molar value.
PROPERTY NAME: pIC50

Some solved cases for reference:
Cc1cc(Nc2cc(C(F)(F)F)ccn2)nc(-c2cn(C(C)C(=O)NCCc3c[nH]c4ccccc34)nn2)c1 (stereo not drawn) | 6.91
Cc1cc(Nc2nccc(OCCO)n2)cc(-c2cn(C[C@H](O)CO)nn2)c1 | 7.21

[P] Cc1cc(Nc2cc(C(F)(F)F)ccn2)nc(-c2cn(C(CO)c3ccc(F)cc3)nn2)c1 (stereo not drawn)
[Q] Cc1cc(Nc2nccc(C(F)F)n2)cc(-c2cn(CC(C)(O)C(C)(C)O)nn2)c1 (stereo not drawn) [Example 21.18]
[R] Cc1cc(Nc2cc(C(F)(F)F)ccn2)nc(-c2cn(CC3(O)CCS(=O)(=O)CC3)nn2)c1
Incoming: Reorder: pIC50, max to min. Rank the items, then write their labels in that order.
Outgoing: P, R, Q
(P: 8.43, R: 8.09, Q: 7.41)

====

- TARGET SYSTEM: recombinant human GST-Syk (Homo sapiens, UniProt P43405)
- Construct: purchased Carna Biosciences 08-176
- EXPERIMENTAL PROTOCOL: Homogeneous Time-Resolved Fluorescence (HTRF) assay for the recombinant human Syk enzyme
- Format: biochemical
- STATED CONDITIONS: recombinant human GST-Syk 5 pM, ATP 25 μM, 10-dose titration 10 μM to 0.508 nM; read-out: rhSYK Activity IC50
pIC50: −log10 of the molar value.
PROPERTY NAME: pIC50

Some solved cases for reference:
Cc1cc(Nc2cc(C(F)(F)F)ccn2)nc(-c2cn(CC(O)C(O)COc3ccccc3Cl)nn2)c1 (stereo not drawn) | 7.20
Cc1cc(Nc2nccc(C(F)F)n2)cc(-c2cn(CC3(C)CNC(=O)O3)nn2)c1 (single isomer, unassigned) [Example 7.32] | 8.30
Cc1cc(Nc2cc(C(F)(F)F)ccn2)nc(-c2cn(C(C)C(=O)NC3CCS(=O)(=O)C3)nn2)c1 (racemic) | 7.37
Cc1cc(Nc2cc(C(F)(F)F)ccn2)nc(-c2cn(C(C)C(=O)N3CCc4cc(O)c(O)cc4C(c4ccccc4)C3)nn2)c1 (stereo not drawn) | 6.87

[A] Cc1cc(Nc2cc(C(F)(F)F)ccn2)nc(-c2cn(C(C)c3ccc(C(=O)O)cc3)nn2)c1 (racemic)
[B] Cc1cc(Nc2ncc(F)c(C(F)F)n2)cc(-c2cn(CC3OC(=O)NC34CC4)nn2)c1 (single isomer, unassigned) [Example 7.33]
Incoming: Of A and B , which one carries the higher reported pIC50? Please reply using the label of the selected record.
Outgoing: A
(A: 8.96, B: 7.95)

====

- TARGET SYSTEM: recombinant human GST-Syk (Homo sapiens)
- Construct: purchased Carna Biosciences 08-176
- EXPERIMENTAL PROTOCOL: Homogeneous Time-Resolved Fluorescence (HTRF) assay for the recombinant human Syk enzyme
- Type: biochemical
- STATED CONDITIONS: recombinant human GST-Syk 5 pM, ATP 25 μM, 10-dose titration 10 μM to 0.508 nM; read-out: rhSYK Activity IC50
PROPERTY NAME: IC50 (µM)

Cc1cc(Nc2nccc(C(F)(F)F)n2)cc(-c2cn(CC(C)(O)CO)nn2)c1 (single isomer, unassigned) [Example 21.4] | 0.0103

[I] Cc1cc(Nc2nccc(C(F)(F)F)n2)cc(-c2cn(CC(O)C(=O)O)nn2)c1 (racemic)
[II] Cc1cc(Nc2cc(C(F)(F)F)ccn2)nc(-c2cn(C3CCCCC(O)C3O)nn2)c1 (single isomer, unassigned) [Example 10.4]
Incoming: Of I versus II , which is the one with smaller reported IC50? Please reply using the label of the selected record.
Outgoing: II

[I] Cc1cc(Nc2nccc(C(F)F)n2)cc(-c2cn(CC3CNC(=O)O3)nn2)c1 (single isomer, unassigned) [Example 7.4]
[II] Cc1cc(Nc2nccc(C(F)(F)F)n2)cc(-c2cn(C3CCC(C(=O)O)CC3)nn2)c1 (stereo not shown)
[III] Cc1cc(Nc2cc(C(F)(F)F)ccn2)nc(-c2cn([C@@H](C)c3ccc(C(=O)O)cc3)nn2)c1
[IV] COc1ccc(OC)c(C(O)C(C)NC(=O)C(C)n2cc(-c3cc(C)cc(Nc4cc(C(F)(F)F)ccn4)n3)nn2)c1 (stereo not shown)
Incoming: Reorder: IC50, max to min. Rank the items, then write their labels in that order.
Outgoing: IV, II, III, I

Numbers sourced from patent US9586931B2.
